Values from patent US20100010053A1

Exercise: for every item that follows, state its recorded EC50.
Target: human S1P1 receptor (EDG1) (Homo sapiens)
Construct: TEV protease site + Gal4-VP16 transcription factor (only in the Tango assay cells; not described for the GTPγS membranes); expressed in transfected cells; host or cells: rat hepatoma cells (membranes, GTPγS assay) or Tango EDG1-bla U2OS cells (Tango assay)
Sequence (P21453 whole entry, the tested form may be a part): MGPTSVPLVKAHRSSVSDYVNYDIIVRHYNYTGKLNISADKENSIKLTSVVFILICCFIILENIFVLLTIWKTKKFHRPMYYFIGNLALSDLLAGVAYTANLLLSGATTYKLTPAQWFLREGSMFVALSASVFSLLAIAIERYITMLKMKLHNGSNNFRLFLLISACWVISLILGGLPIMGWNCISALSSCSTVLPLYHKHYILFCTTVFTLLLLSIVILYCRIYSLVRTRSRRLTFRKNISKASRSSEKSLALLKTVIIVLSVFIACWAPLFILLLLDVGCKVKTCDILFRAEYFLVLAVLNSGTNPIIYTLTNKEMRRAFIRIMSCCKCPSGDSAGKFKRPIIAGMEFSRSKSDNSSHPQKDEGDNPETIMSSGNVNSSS
Experiment: S1P1 GTPγS assay or S1P1 Tango assay (at least one of the above assays)
Type: cell-based
Conditions: read-out: pEC50 in at least one of the above assays (converted)

Query :: Fill in the blank: the reported EC50 of CC(C)Oc1ncc(-c2nc(-c3cc(F)cc4c(CCC(=O)O)cn(C)c34)no2)cc1Cl [Example 102] is ____.
Result :: < 1 nM

Query :: Fill in the blank: the reported EC50 of CC(C)Oc1ccc(-c2nc(-c3cccc4c(CN5CCC(C(=O)O)CC5)c[nH]c34)no2)cc1Cl [Example 48] is ____.
Result :: < 10 nM

Query :: Fill in the blank: the reported EC50 of CC(C)Oc1ccc(-c2nc(-c3ccc4[nH]c(C(=O)O)cc4c3)no2)cc1Cl [Example 8] is ____.
Result :: ≥ 1000 nM

Query :: Fill in the blank: the reported EC50 of CC(C)Oc1ccc(-c2nc(-c3c(F)ccc4c(CCC(=O)O)cn(C)c34)no2)cc1C#N [Example 106] is ____.
Result :: < 10 nM

Query :: Fill in the blank: the reported EC50 of CC(C)Oc1ccc(-c2nc(-c3c(F)ccc4c(CCC(=O)O)c[nH]c34)no2)cc1Cl [Example 103] is ____.
Result :: < 1 nM

Query :: Fill in the blank: the reported EC50 of CC(C)Oc1ccc(-c2nc(-c3cc4[nH]cc(CCC(=O)O)c4cc3F)no2)cc1Cl [Example 109] is ____.
Result :: < 1 nM

Query :: Fill in the blank: the reported EC50 of CC(C)Oc1ccc(-c2nc(-c3cccc4c(CNCC(=O)O)c[nH]c34)no2)cc1Cl [Example 47] is ____.
Result :: < 1 nM

Query :: Fill in the blank: the reported EC50 of CC(C)Oc1ncc(-c2nc(-c3cc(F)cc4c(CCC(=O)O)c[nH]c34)no2)cc1Cl [Example 101] is ____.
Result :: < 10 nM

Query :: Fill in the blank: the reported EC50 of COc1ccc(-c2nc(-c3cccc4c(CCC(=O)O)cn(C)c34)no2)cc1OC [Example 44] is ____.
Result :: ≥ 1000 nM

Query :: Fill in the blank: the reported EC50 of CC(C)Cn1cc(CCC(=O)O)c2cccc(-c3noc(-c4ccc(OC(C)C)c(Cl)c4)n3)c21 [Example 30] is ____.
Result :: ≥ 1000 nM

Query :: Fill in the blank: the reported EC50 of CC(C)Oc1ccc(-c2nc(-c3cccc4c(CCNC5(C(=O)O)CC5)cn(C)c34)no2)cc1Cl [Example 68] is ____.
Result :: < 10 nM

Query :: Fill in the blank: the reported EC50 of CC(C)Oc1ccc(-c2nc(-c3cccc4c(C[C@@H](C)C(=O)O)cn(C)c34)no2)cc1Cl [Example 36] is ____.
Result :: < 10 nM

Query :: Fill in the blank: the reported EC50 of CC(C)Oc1ccc(-c2nc(-c3ccc(F)c4c(CCC(=O)O)c[nH]c34)no2)cc1Cl [Example 19] is ____.
Result :: < 10 nM

Query :: Fill in the blank: the reported EC50 of CC(C)Oc1ccc(-c2nc(-c3cccc4c(C(=O)NCCC(=O)O)cn(C)c34)no2)cc1Cl [Example 76] is ____.
Result :: < 1 nM

Query :: Fill in the blank: the reported EC50 of CC(C)Oc1ccc(-c2nc(-c3ccc4[nH]c(CCC(=O)O)cc4c3)no2)cc1C#N [Example 89] is ____.
Result :: < 10 nM

Query :: Fill in the blank: the reported EC50 of CC(C)Oc1ccc(-c2nc(-c3cccc4c(C(=O)N(C)CCC(=O)O)c[nH]c34)no2)cc1Cl [Example 75] is ____.
Result :: < 10 nM

Query :: Fill in the blank: the reported EC50 of CC(C)Oc1ccc(-c2nc(-c3cccc4c(CNCCC(=O)O)cn(C)c34)no2)cc1Cl [Example 58] is ____.
Result :: < 1 nM

Query :: Fill in the blank: the reported EC50 of CC(C)Oc1ccc(-c2nc(-c3cccc4c(CN[C@H](C)C(=O)O)c[nH]c34)no2)cc1Cl [Example 49] is ____.
Result :: < 1 nM

Query :: Fill in the blank: the reported EC50 of CC(C)Oc1ccc(-c2nc(-c3cccc4c(CCC(=O)O)cn(C)c34)no2)cc1Cl [Example 2] is ____.
Result :: < 10 nM

Query :: Fill in the blank: the reported EC50 of CC(C)Oc1ccc(-c2nc(-c3cccc4c(CCOCC(=O)O)cn(C)c34)no2)cc1Cl [Example 79] is ____.
Result :: < 10 nM

Query :: Fill in the blank: the reported EC50 of CC(C)Oc1ccc(-c2nc(-c3cccc4c(C(=O)NCCC(=O)O)c[nH]c34)no2)cc1Cl [Example 73] is ____.
Result :: < 1 nM

Query :: Fill in the blank: the reported EC50 of CC(C)Oc1ccc(-c2nc(-c3cccc4c(CCCOCC(=O)O)cn(C)c34)no2)cc1Cl [Example 80] is ____.
Result :: < 10 nM

Query :: Fill in the blank: the reported EC50 of CC(C)Oc1ccc(-c2nc(-c3c(F)ccc4c(CCC(=O)O)cn(C)c34)no2)cc1Cl [Example 104] is ____.
Result :: < 10 nM
